# TEST NAME: Dissociation constant, pKa of the compound at pH 7.4
# Assay type: physicochemical
READOUT: pKa

compound="O=C(Nc1cc(-c2cc3c([nH]2)C2(CCNC2)CNC3=O)ccn1)c1ccc2ccccc2c1 (racemic)" measured=8.5
compound=CN1CCC2(CC1)CNC(=O)c1cc(-c3ccnc(NC(=O)c4ccc5ccccc5c4)c3)[nH]c12 measured=8.3
compound=O=C(Nc1cc(-c2cc3c([nH]2)C2(CCNCC2)CNC3=O)ccn1)c1ccc2ccccc2c1 measured=9.2
compound="O=C(Nc1cc(-c2cc3c([nH]2)C2(CCCNC2)CNC3=O)ccn1)c1ccc2ccccc2c1 (single isomer, unassigned)" measured=8.2
compound=CN1CCC2(CC1)CNC(=O)c1cc(-c3ccnc(NC(=O)c4cccc(OC(F)(F)F)c4)c3)[nH]c12 measured=8.4
compound="O=C(Nc1cc(-c2cc3c([nH]2)C2(CCCNC2)CNC3=O)ccn1)c1cccc(OC(F)(F)F)c1 (racemic)" measured=8.2
compound="O=C(Nc1cc(-c2cc3c([nH]2)C2(CCNC2)CNC3=O)ccn1)c1cccc(OC(F)(F)F)c1 (racemic)" measured=8.4
compound=O=C(Nc1cc(-c2cc3c([nH]2)C2(CCNCC2)CNC3=O)ccn1)c1cccc(OC(F)(F)F)c1 measured=9.1
